# EXPERIMENTAL_TARGET: HCV RdRp NS5B d21BK (BK strain, 1b subtype) (Hepatitis C virus genotype 1b, UniProt P26663)
# Construct: NS5B from the BK strain (1b subtype) is expressed in E. coli as a protein in which the 21 C-terminal amino acids are replaced
# Sequence (P26663 2420-2997, looked up, natural form): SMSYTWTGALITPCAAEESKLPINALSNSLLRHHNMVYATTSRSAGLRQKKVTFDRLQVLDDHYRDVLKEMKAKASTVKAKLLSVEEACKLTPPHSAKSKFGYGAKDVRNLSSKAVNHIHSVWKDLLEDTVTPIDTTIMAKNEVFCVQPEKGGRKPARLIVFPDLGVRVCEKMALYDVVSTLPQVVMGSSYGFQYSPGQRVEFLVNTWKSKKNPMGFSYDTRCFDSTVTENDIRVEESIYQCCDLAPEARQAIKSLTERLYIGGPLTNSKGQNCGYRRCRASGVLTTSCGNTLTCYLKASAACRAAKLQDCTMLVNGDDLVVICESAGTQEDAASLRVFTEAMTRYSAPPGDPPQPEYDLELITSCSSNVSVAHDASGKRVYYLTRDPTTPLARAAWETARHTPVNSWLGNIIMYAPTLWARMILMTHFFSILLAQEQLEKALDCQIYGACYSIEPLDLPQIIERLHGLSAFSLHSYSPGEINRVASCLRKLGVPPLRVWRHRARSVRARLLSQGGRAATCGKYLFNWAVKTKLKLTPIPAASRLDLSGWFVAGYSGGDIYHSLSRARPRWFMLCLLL
# PROTOCOL_TEXT: HCV polymerase (NS5B) RNA-dependent RNA polymerase inhibition, 33P-GTP filter assay
# RUN_PARAMETERS: in vitro; NS5B BK strain (1b subtype), 24 nM enzyme, 2 h at room temperature; read-out: HCV Polymerase Median IC50
pIC50: −log10 of the molar value.
Assign True whenever pIC50 does not fall below 6; assign False whenever it does.

These solved cases illustrate the format of a correct answer.
O=C(O)[C@@H]1CCCCN1S(=O)(=O)c1cc(Cl)cc(Br)c1O: True
Cc1cc(NC(=O)c2ccccc2)c(S(=O)(=O)N2CCC[C@H]2C(=O)O)cc1Cl: False
Cc1cc(S(=O)(=O)N2C[C@@H](O)C[C@@H]2C(=O)O)c(N)cc1Cl: False
Cc1cc(N)c(S(=O)(=O)N2CCC[C@H]2C(=O)O)cc1Cl: False
Cc1cc(NC(=O)c2cccs2)c(S(=O)(=O)N2CCC[C@H]2C(=O)O)cc1Cl: False
Cc1cc(S(=O)(=O)N2CSC[C@H]2C(=O)O)c(N)cc1Cl: False
O=C(O)[C@@H]1CCCN1S(=O)(=O)c1cc(Br)cc(Cl)c1O: True

--- query ---
Task: # bool: pIC50 of O=C(O)[C@@H]1CSCN1S(=O)(=O)c1cc(Cl)cc(Cl)c1O >= 6
Result: True

----------
# EXPERIMENTAL_TARGET: HCV RdRp NS5B d21BK (BK strain, 1b subtype) (Hepatitis C virus genotype 1b)
# Construct: NS5B from the BK strain (1b subtype) is expressed in E. coli as a protein in which the 21 C-terminal amino acids are replaced
# PROTOCOL_TEXT: HCV polymerase (NS5B) RNA-dependent RNA polymerase inhibition, 33P-GTP filter assay
# RUN_PARAMETERS: in vitro; NS5B BK strain (1b subtype), 24 nM enzyme, 2 h at room temperature; read-out: HCV Polymerase Median IC50
# Description: The ability of the compounds of the present invention to inhibit hepatitis C polymerase was established by the following experimental procedure: NS5B from the BK strain (1b subtype) is expressed in E. coli as a protein in which the 21 C-terminal amino acids are replaced with a short linker and a hexahistidine tag (GSHHHHHH). […] The radioactive product is captured on a filter and quantitated after removal of the unincorporated nucleotides. […]
param class (str): category from IC50; see ranges lower: < 0.7 µM; middle: ≥ 0.7 µM and < 4 µM; upper: ≥ 4 µM

Cc1cc(N)c(S(=O)(=O)N2CSC[C@@H]2C(=O)O)cc1Cl [Example 53]: middle

Task: Using the reported IC50, which band applies to O=C(O)[C@@H]1CSCN1S(=O)(=O)c1cc(Cl)c(Cl)c(Cl)c1O [Example 45] ?
Result: lower

Task: Using the reported IC50, which band applies to O=C(O)[C@@H]1CCCN1S(=O)(=O)c1cc(Cl)cc(Br)c1O [Example 5] ?
Result: lower

Task: Using the reported IC50, which band applies to O=C(O)[C@@H]1C[C@@H](O)CN1S(=O)(=O)c1cc(F)cc(Cl)c1O [Example 18] ?
Result: middle

Task: Using the reported IC50, which band applies to O=C(O)[C@@H]1C[C@@H](O)CN1S(=O)(=O)c1cc(Cl)c(Cl)c(Cl)c1O [Example 3] ?
Result: lower

Task: Using the reported IC50, which band applies to O=C(O)[C@@H]1CCCN1S(=O)(=O)c1c(Cl)cc(Cl)cc1Cl [Example 32] ?
Result: upper
